test: Half life in Sprague-Dawley rat at 10 mg/kg, iv measured upto 24 hrs by LC-MS/MS analysis; assay type: ADME, organism-based; settings: in vivo
test_readout: half-life (h)
One number for each entry, in h.

Query block: Field request: half-life | item: O=C[C@H](C[C@@H]1CCNC1=O)NC(=O)[C@H](Cc1cccc(F)c1)NC(=O)c1cc2ccccc2[nH]1
Result block: 7.6

* * *

test: Cytotoxicity against human Caco-2 cells assessed as reduction in cell viability by neutral red uptake assay; type: toxicity, cell-based
Peptide text beside a SMILES is read from it.
test_readout: CC50

compound | CC50
CSCC[C@@H](C=O)NC(=O)[C@H](CC(C)C)NC(=O)[C@H](CC(C)C)NC(C)=O (Ac-Leu-Leu-Met-aldehyde) | > 100 µM

With those in mind, consider the next compound.
Query block: Entry CCC[C@H](NC(=O)[C@H](CC(C)C)NC(=O)OCc1ccccc1)C(=O)C(=O)NCc1ccccn1 : reported CC50 = ?
Result block: > 100 µM
